Source of measurements: ChEMBL document CHEMBL1130147

target: 5-hydroxytryptamine receptor 2B (Homo sapiens); assay: Agonist activity at cloned human 5-hydroxytryptamine 2B receptor using [3H]5-HT radioligand; format: binding
Sequence (P41595 whole entry): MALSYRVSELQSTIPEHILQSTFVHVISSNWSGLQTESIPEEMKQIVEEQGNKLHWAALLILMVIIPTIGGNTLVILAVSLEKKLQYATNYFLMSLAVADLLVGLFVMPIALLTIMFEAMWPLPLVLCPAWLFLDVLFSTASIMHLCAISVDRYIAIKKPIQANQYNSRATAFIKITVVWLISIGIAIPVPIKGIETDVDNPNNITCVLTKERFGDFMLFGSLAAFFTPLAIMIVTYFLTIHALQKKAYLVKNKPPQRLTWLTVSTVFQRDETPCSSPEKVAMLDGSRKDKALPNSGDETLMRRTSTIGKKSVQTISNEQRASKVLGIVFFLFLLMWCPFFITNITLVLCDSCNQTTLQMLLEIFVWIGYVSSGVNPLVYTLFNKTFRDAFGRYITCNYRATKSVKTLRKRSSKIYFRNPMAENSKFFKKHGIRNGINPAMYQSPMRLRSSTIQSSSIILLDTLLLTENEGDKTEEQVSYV
propertyMeasured: Ki
Form entry: enter the amount, then its unit.

Solved entries (count: 3):
Entry COc1cc(CCN)cc(OC)c1OC [MESCALINE] ; Ki = 795 nM

The molecule identified as COc1cc(CCN)c2c(c1OC)OCC2 registered its Ki at 523 nM

The molecule listed as CCOc1c(OC)cc(CCN)cc1OC shows Ki equal to 555 nM

// below: Ki requested for another molecule
Record summary for COc1c2c(c(CCN)c3c1OCC3)CCO2 : reported Ki = 301 nM

---

target: 5-hydroxytryptamine receptor 2A (Homo sapiens); test: Agonist activity at cloned human 5-hydroxytryptamine 2A receptor using [125I]DOI radioligand
Sequence (P28223 whole entry): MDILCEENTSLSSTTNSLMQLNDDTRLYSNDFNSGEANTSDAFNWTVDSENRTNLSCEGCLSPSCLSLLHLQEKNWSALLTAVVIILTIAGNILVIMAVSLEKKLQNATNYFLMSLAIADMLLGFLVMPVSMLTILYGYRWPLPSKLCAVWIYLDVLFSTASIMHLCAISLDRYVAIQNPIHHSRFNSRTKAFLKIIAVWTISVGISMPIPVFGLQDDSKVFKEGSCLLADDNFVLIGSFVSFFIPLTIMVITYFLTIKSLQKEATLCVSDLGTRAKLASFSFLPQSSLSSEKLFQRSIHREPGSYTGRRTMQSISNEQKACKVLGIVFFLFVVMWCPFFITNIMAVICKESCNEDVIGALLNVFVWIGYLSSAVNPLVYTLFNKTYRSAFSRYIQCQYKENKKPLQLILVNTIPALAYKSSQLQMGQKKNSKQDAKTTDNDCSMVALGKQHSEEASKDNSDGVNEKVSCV
propertyMeasured: pKi
As a rule, pKi stands for the negative log10 of the concentration, concentration in M.

The compound CCOc1c(OC)cc(CCN)cc1OC showed pKi equal to 6.67

So for COc1cc(CCN)cc(OC)c1OC [MESCALINE] , the logged pKi turned out to be 6.26

***
Note to self: pKi recorded for COc1c2c(c(CCN)c3c1OCC3)CCO2 was 6.47

---

target: 5-hydroxytryptamine receptor 2A (Rattus norvegicus, UniProt P14842); test: Effect on phosphoinositide hydrolysis in NIH 3T3 fibroblast 5-hydroxytryptamine 2A receptor; format: functional
Sequence (P14842 whole entry): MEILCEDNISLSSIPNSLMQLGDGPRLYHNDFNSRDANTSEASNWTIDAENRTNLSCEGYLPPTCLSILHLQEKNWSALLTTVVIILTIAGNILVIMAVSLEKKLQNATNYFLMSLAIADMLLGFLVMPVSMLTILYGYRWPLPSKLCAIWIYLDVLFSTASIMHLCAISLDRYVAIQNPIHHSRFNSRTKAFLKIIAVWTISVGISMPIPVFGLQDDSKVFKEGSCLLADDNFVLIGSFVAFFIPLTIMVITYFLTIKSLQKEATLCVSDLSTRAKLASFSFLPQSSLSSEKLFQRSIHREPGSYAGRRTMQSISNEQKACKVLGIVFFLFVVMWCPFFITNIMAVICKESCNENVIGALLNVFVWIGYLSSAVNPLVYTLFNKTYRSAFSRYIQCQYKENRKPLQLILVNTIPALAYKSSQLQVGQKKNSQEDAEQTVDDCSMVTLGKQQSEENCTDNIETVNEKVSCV
propertyMeasured: EC50 (µM)
Could you give me the number in µM? Just the number is fine.

Field EC50 (system: 5-hydroxytryptamine receptor 2A (Rattus norvegicus, UniProt P14842)) for entry CCOc1c(OC)cc(CCN)cc1OC = 4

COc1c2c(c(CCN)c3c1OCC3)CCO2 tested on 5-hydroxytryptamine receptor 2A (Rattus norvegicus, UniProt P14842) gave EC50: 2

Note: attention shifts to another entry.
Test item COc1cc(CCN)cc(OC)c1OC [MESCALINE] ; 5-hydroxytryptamine receptor 2A (Rattus norvegicus, UniProt P14842); reported EC50 was 4
